molecular target: BRD4 (Homo sapiens, UniProt O60885); experiment: biochemical; type: binding; details: one of the FRET assays described; read-out: FRET BRD4 IC50
test readout: IC50

[2H]C([2H])([2H])c1nnn(C)c1-c1cc2c(cc1Cl)c1ncc(C(C)(C)O)cc1n2C(c1ccccn1)C1CCOCC1 (single isomer, unassigned) [Example 80]	< 1500 nM
[2H]C([2H])([2H])c1nnn(C)c1-c1cc2c(cc1F)c1ncc(C(C)(C)O)cc1n2C(CCOC)c1ccccc1 (single isomer, unassigned) [Example 63]	< 5 nM
[2H]C([2H])([2H])c1nnn(C)c1-c1ccc2c3ncc(C(C)(C)O)cc3n(C(c3cc(C)on3)C3CCOCC3)c2c1 (single isomer, unassigned) [Example 73]	< 5 nM

====

biological target: UniProtKB O60885; assay: biochemical; format: binding; settings: one of the FRET assays described; read-out: FRET BRD4 IC50
Recorded IC50, one value per entry.
test readout: IC50

[2H]C([2H])([2H])c1nnn(C)c1-c1cc2c(cc1F)c1ncc(C(C)(C)O)cc1n2C(c1ccccn1)C1CCOCC1 (single isomer, unassigned) [Example 37]	< 5 nM
[2H]C([2H])([2H])c1nnn(C)c1-c1cc2c(cc1F)c1ncc(C(C)(C)O)cc1n2C(c1ncccc1C)C1CCOCC1 (single isomer, unassigned) [Example 42]	< 5 nM
[2H]C([2H])([2H])c1nnn(C)c1-c1ccc2c3ncc(C(C)(C)O)cc3n(C(c3ncccc3F)C3CCOCC3)c2c1 (single isomer, unassigned) [Example 72]	< 1 nM

====

biological target: BRD4 (Homo sapiens); assay: biochemical; type: binding; settings: one of the FRET assays described; read-out: FRET BRD4 IC50
# IC50 listing for each entry below
test readout: IC50

[2H]C([2H])([2H])c1nnn(C)c1-c1ccc2c3ncc(C(C)(C)O)cc3n(C(c3ncccc3F)C3CCOCC3)c2c1 (single isomer, unassigned) [Example 71]	< 1 nM
[2H]C([2H])([2H])c1nnn(C)c1-c1cc2c(cc1Cl)c1ncc(C(C)(C)O)cc1n2C(CCC)c1ncccc1F (single isomer, unassigned) [Example 83]	< 5 nM
Cc1nnn(C)c1-c1cc2c(cc1F)c1ncc(C(C)(C)O)cc1n2[C@H](c1ccccc1)C1CCOCC1	< 1500 nM
[2H]C([2H])([2H])c1nnn(C)c1-c1cc2c(cc1F)c1ncc(C(C)(C)O)cc1n2C(c1ccccn1)C1CCOCC1 (single isomer, unassigned) [Example 36]	< 1 nM
Cc1noc(C)c1-c1ccc2c3ncc(C(C)(C)O)cc3n([C@H](c3ccccc3)C3CCOCC3)c2c1F	< 5 nM
[2H]C([2H])([2H])c1nnn(C)c1-c1cc2c(cc1F)c1ncc(C(C)(C)O)cc1n2C(c1ccccc1)C1COC1 (single isomer, unassigned) [Example 68]	< 1500 nM
[2H]C([2H])([2H])c1nnn(C)c1-c1cc2c(cc1Cl)c1ncc(C(C)(C)O)cc1n2C(c1ccccn1)C1CCOCC1 (single isomer, unassigned) [Example 81]	< 1500 nM
[2H]C([2H])([2H])c1nnn(C)c1-c1cc2c(cc1F)c1ncc(C(C)(C)O)cc1n2C(CCC)c1ccccn1 (single isomer, unassigned) [Example 49]	< 5 nM
[2H]C([2H])([2H])c1nnn(C)c1-c1cc2c(cc1F)c1ncc(C(C)(C)O)cc1n2C(c1ncccc1F)C1CCOCC1 (stereo not drawn) [Example 31]	< 5 nM
Cc1noc(C)c1-c1cc2c(cc1F)c1ncc(C(C)(C)O)cc1n2[C@H](c1ccccc1)C1CCOCC1	< 5 nM
[2H]C([2H])([2H])c1nnn(C)c1-c1cc2c(cc1F)c1ncc(C(C)(C)O)cc1n2C(CCC)c1ccc(F)cn1 (single isomer, unassigned)	< 5 nM
Cc1noc(C)c1-c1ccc2c3ncc(C(C)(C)O)cc3n([C@H](c3ccccc3)C3CCOCC3)c2c1	< 5 nM
